Tested on: A549
Test: Antiproliferative activity against human A549 cells after 72 hrs by MTT assay
Format: functional, cell-based
Conditions: A549, 72 h
VALUE TYPE: TGI (µM)
The figure you give is taken to be in µM; do not add the unit.

Task: Record CN(C)/[N+]([O-])=N/Oc1cc(O/N=[N+](\[O-])N2CCCC2CO)c([N+](=O)[O-])cc1[N+](=O)[O-] (centres undefined) : what is its TGI with A549?
Output: 6

Task: Record `CCOC(=O)N1CCN(/[N+]([O-])=N/Oc2cc(O/N=[N+](\[O-])N3CCN(C(=O)N(CC)CC)CC3)c([N+](=O)[O-])cc2[N+](=O)[O-])CC1` : what is its TGI with A549?
Output: 10
